Tested on: K562/Vcr30 chronic myeloid leukemia cells (cytostatic-resistant)
Test Summary: Viability of leukemia cells, K562/Vcr30
Format: cell-based, human
Condition Label: Homo sapiens; K562/Vcr30, 72 h; read-out: IC50 for viability of leukemia cell lines
Measurement Type: IC50 (µM)
Write it as a number; the unit µM goes unstated.

| Molecule | IC50 / µM |
| --- | --- |
| COc1cc([C@@H]2c3cc4c(cc3[C@@H](O)[C@H]3COC(=O)[C@H]23)OCO4)cc(OC)c1OC [Epipodophyllotoxin, epipodophyllotoxin] | 0.45 |

Turning now to a further record.
Reported IC50 for COc1cc([C@@H]2c3cc4c(cc3[C@H](O)[C@H]3COC(=O)[C@H]23)OCO4)cc(OC)c1OC [Podophyllotoxin, podophyllotoxin] was 0.007

Provenance of the data: patent US7709526B2
